- target_or_test_system: Cytochrome P450 2C9 (Homo sapiens)
- measurement_description: Cytochrome P450 Family 2 Subfamily C Member 9 (CYP2C9) small molecule antagonists: luciferase reporter qHTS assay (AID 1671198); note: nearly all actives have a fitted effect of over 50% in size
- experimental_setup: P450-Glo CYP2C9 enzyme assay, luciferin luminescence; series mostly up to 115 µM
Inconclusive results are not listed. Activity calls are given as the source filed them. Calls come from the whole dose curve; as a rule, active = well fitted inhibition curve with a large enough effect in the repeat runs; inconclusive = weak or mixed curves; inactive = no such curve, though single readings can be large or run the other way.
Classes to choose from: t for active, f for inactive

Ask | Field: outcome | Entry: `O=[N+]([O-])c1cccc(Cl)c1`
Reply | f

Ask | Field: outcome | Entry: `C=C(C)C(=O)OCCC[Si](OC)(OC)OC`
Reply | t

Ask | Field: outcome | Entry: `C=C(C)C(=O)OCCCCCCCCCCCC`
Reply | f

Ask | Field: outcome | Entry: `CC(C)Cc1ccccc1`
Reply | f

Ask | Field: outcome | Entry: `CCCCCCCCCC(=O)O`
Reply | t

Ask | Field: outcome | Entry: `C=C(C)C(=O)OCCCCCC`
Reply | f

Ask | Field: outcome | Entry: `Cc1ccc(N)c(S(=O)(=O)O)c1`
Reply | t

Ask | Field: outcome | Entry: `OC[C@@H](O)[C@H](O)[C@H](O)[C@@H](O)CO`
Reply | f

Ask | Field: outcome | Entry: `Clc1ccc(Cl)c(Cl)c1Cl`
Reply | f

Ask | Field: outcome | Entry: `Cn1c([N+](=O)[O-])cnc1COC(N)=O`
Reply | f

Ask | Field: outcome | Entry: `O=C1CCCCC1`
Reply | f

Ask | Field: outcome | Entry: `C=CC(=O)OCCCCCCCC(C)C`
Reply | f

Ask | Field: outcome | Entry: `CCc1ccc(O)cc1`
Reply | f

Ask | Field: outcome | Entry: `C[C@@H]1O[C@@H](OC[C@H]2O[C@@H](Oc3c(-c4ccc(O)c(O)c4)oc4cc(O)cc(O)c4c3=O)[C@H](O)[C@@H](O)[C@@H]2O)[C@H](O)[C@H](O)[C@H]1O`
Reply | f

Ask | Field: outcome | Entry: `OC1CCCC1`
Reply | f

Ask | Field: outcome | Entry: `CCCCCCCCC`
Reply | f

* * *

- measurement_description: qHTS assay for small molecule disruptors of the mitochondrial membrane potential (AID 720635); note: potency is the fitted concentration of half-maximal effect
- experimental_setup: HepG2 mitochondrial membrane potential, Mito-MPS dye ratio; series mostly up to 83.2 µM
Records with an inconclusive call do not appear. Calls of active or inactive are those of the source. The call rests on the fitted dose curve; in most records, active means well fitted inhibition curve with a large enough effect in the signal ratio in the repeat runs; inconclusive means weak or mixed curves, or effect the other way; inactive means flat fitted curve, though single readings scatter; the % refers to the signal ratio.
experimental_readout: Potency

CCCCOCCO | inactive
CC(C)(CO)COC(=O)C(C)(C)CO | inactive
CC1CC(OC(=O)c2ccccc2O)CC(C)(C)C1 (centres undefined) | 27 µM (active)
OC1CCCC1 | inactive
CS(=O)(=O)c1ccc([C@@H](O)[C@@H](CO)NC(=O)C(Cl)Cl)cc1 | inactive
NCCNCCNCCNCCN | inactive
CCOC(=O)C1OC1c1ccccc1 (centres undefined) | inactive
Cc1cc(NS(=O)(=O)c2ccc(N)cc2)no1 | inactive

Ask | Query: Potency; subject: `CCc1ccccc1O`
Reply | inactive

Ask | Query: Potency; subject: `CN(C)c1cccc(O)c1`
Reply | 10.9 µM (active)

* * *

- measurement_description: Caspase-3/7 induction in HepG2 cells by small molecules, qHTS cell viability counter screen (AID 1346981); note: nearly all actives have a fitted effect of over 30% in size
- experimental_setup: CellTiter-Fluor fluorescence, 17 h; series mostly up to 92.4 µM
Inconclusive results are not listed. Activity calls are given as the source filed them. Calls follow the shape of the dose curve; as a rule, active = well fitted cell-killing curve with a large enough effect in the repeat runs; inconclusive = weak or mixed curves, or effect the other way; inactive = flat fitted curve, though single readings scatter.
experimental_readout: outcome

CC(=O)Nc1ccc(C(=O)O)cc1 | inactive
O=Nc1ccc(O)cc1 | inactive
Cn1c([N+](=O)[O-])cnc1COC(N)=O | inactive
CC(C)NCC(O)COc1cccc2ccccc12 (configuration not stated) | inactive
CS(=O)(=O)c1ccc([C@@H](O)[C@@H](CO)NC(=O)C(Cl)Cl)cc1 | inactive

Ask | Query: outcome; subject: `Cc1ccc(N)c(S(=O)(=O)O)c1`
Reply | inactive

Ask | Query: outcome; subject: C=C1C2CCC(C2)C1(C)C (configuration not stated)
Reply | inactive
